biological target: LRRK2 G2019S (Homo sapiens, UniProt Q5S007, G2019S); test: TR-FRET cellular assay for LRRK2 Ser935 phosphorylation, SH-SY5Y cells, BacMam LRRK2-GFP G2019S (incl. Tocriscreen Mini library screen and follow-up); assay type: cell-based; set-up: This high-throughput assay utilizes cells expressing full-length human LRRK2 with a C-terminal GFP tag (LRRK2-GFP); host or cells: SH-SY5Y cells transduced with BacMam; conditions: Tocriscreen Mini library screen, 20 µM, SH-SY5Y G2019S, relative to LRRK2-IN-1 control
Sequence (Q5S007 whole entry G2019S): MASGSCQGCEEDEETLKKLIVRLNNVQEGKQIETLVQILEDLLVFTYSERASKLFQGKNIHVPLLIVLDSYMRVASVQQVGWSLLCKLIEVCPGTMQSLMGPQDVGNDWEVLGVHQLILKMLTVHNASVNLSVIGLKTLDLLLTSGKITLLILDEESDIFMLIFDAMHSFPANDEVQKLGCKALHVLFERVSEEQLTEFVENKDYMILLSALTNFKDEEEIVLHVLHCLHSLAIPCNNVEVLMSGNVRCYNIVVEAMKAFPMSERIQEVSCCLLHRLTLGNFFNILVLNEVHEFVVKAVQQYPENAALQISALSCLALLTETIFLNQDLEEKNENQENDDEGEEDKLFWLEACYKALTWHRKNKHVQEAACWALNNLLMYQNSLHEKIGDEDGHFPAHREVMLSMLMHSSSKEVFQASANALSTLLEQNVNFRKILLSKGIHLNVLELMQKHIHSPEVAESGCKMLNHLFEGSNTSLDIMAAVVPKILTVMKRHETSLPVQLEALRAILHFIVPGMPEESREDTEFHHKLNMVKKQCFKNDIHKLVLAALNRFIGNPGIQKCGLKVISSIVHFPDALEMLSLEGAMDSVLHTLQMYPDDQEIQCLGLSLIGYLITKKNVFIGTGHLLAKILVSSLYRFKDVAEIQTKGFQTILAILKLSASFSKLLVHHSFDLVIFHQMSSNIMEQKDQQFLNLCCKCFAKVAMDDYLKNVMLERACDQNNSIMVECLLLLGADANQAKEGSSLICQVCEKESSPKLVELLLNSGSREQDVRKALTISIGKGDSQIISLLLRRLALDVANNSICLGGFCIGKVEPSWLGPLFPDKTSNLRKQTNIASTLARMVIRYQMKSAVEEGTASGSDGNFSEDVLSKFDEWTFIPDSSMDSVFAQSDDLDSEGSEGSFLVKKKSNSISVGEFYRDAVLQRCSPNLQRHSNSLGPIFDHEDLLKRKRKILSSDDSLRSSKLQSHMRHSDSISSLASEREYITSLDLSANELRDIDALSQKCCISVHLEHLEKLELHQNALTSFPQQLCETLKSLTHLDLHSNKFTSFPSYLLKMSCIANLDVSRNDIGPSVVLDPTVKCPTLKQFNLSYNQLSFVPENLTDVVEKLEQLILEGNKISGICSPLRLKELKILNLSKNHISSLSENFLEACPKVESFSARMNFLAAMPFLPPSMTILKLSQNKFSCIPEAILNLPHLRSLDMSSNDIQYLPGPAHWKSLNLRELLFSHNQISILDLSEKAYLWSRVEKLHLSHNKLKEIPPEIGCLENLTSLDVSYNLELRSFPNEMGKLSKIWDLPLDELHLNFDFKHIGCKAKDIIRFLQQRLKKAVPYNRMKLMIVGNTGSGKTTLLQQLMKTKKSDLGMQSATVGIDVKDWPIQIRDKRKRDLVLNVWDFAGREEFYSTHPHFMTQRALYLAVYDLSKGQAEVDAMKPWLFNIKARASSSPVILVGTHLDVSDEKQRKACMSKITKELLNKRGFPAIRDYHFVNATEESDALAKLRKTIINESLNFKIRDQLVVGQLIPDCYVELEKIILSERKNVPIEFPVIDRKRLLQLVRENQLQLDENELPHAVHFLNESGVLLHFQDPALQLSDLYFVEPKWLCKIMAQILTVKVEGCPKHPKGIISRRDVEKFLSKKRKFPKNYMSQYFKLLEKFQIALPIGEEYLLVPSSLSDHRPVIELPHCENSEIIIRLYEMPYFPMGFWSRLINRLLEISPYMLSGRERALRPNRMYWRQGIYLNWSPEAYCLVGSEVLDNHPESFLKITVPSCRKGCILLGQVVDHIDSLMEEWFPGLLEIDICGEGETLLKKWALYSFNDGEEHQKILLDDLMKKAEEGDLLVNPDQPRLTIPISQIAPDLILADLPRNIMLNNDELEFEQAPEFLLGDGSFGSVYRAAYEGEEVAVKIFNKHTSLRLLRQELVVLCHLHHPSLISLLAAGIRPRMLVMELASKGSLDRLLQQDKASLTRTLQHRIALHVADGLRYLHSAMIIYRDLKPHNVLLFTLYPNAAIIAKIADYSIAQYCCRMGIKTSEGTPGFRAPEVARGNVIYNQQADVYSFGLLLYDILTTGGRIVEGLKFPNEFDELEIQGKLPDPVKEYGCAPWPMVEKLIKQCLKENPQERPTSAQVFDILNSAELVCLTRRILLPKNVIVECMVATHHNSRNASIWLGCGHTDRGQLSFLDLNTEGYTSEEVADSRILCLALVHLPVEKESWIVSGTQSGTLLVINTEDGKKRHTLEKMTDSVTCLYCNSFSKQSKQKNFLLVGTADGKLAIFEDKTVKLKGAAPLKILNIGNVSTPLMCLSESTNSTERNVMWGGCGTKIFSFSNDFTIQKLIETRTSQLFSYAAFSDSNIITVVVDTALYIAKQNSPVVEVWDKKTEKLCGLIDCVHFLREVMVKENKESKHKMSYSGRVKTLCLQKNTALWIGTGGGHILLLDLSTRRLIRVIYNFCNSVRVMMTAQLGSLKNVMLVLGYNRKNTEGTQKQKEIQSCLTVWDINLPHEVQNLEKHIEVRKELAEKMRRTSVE
Kind request: treat 60% as inclusive, so %Inhibition Initial screen at 60% or higher is TRUE, anything lower is FALSE.

Observe how each entry below is paired with its result.
> print(dat)
                                   molecule                           subject.of.test  qualitative.label
1         O=C1C(SCCO)=C(SCCO)C(=O)c2ccccc21  LRRK2 G2019S (Homo sapiens, UniProt Q5S007, G2019S)               TRUE
2       CC(C)(C)c1ccc(S(=O)(=O)/C=C/C#N)cc1  LRRK2 G2019S (Homo sapiens, UniProt Q5S007, G2019S)               TRUE
3  O=C(CCCN1CCC2(CC1)C(=O)N(Cc1cccc(F)c1)CN2c1ccccc1)c1ccc(F)cc1.O=C(O)/C=C\C(=O)O [3′-fluorobenzylspiperone maleate]  LRRK2 G2019S (Homo sapiens, UniProt Q5S007, G2019S)              FALSE
4              Cc1ccc(S(=O)(=O)/C=C/C#N)cc1  LRRK2 G2019S (Homo sapiens, UniProt Q5S007, G2019S)               TRUE
5  Nc1nc(Nc2ccccc2)nc2c1ncn2[C@@H]1O[C@H](CO)[C@@H](O)[C@H]1O  LRRK2 G2019S (Homo sapiens, UniProt Q5S007, G2019S)              FALSE

Check if %Inhibition Initial screen >= 60% (inclusive). Item: "NC(=O)Nc1sc(-c2ccc(F)cc2)cc1C(N)=O"
FALSE

Please indicate if the recorded %Inhibition Initial screen for "C[C@@H](N)[C@H]1CC[C@H](C(=O)Nc2ccncc2)CC1" meets or exceeds 60%.
TRUE

Test whether the molecule "Oc1c2ccccc2c2c3c(cccc13)N=N2" records %Inhibition Initial screen of 60% or higher.
TRUE

Test whether the molecule "O=C1NC(=O)c2c1c1c3ccccc3n3c1c1c2c2ccccc2n1C1CCC3O1" records %Inhibition Initial screen of 60% or higher.
FALSE

---

Exercise: for every item that follows, state its recorded pIC50.
molecular target: LRRK2 G2019S (Homo sapiens, UniProt Q5S007, G2019S); assay: TR-FRET cellular assay for LRRK2 Ser935 phosphorylation, SH-SY5Y cells, BacMam LRRK2-GFP G2019S (incl. Tocriscreen Mini library screen and follow-up); format: cell-based; design: This high-throughput assay utilizes cells expressing full-length human LRRK2 with a C-terminal GFP tag (LRRK2-GFP); host or cells: SH-SY5Y cells transduced with BacMam; conditions: SH-SY5Y, G2019S; +/- SD, three independent experiments; * = partial inhibition; read-out: IC50, TR-FRET cell-based assay for Ser935 phosphorylation of LRRK2
Give bare numbers, as −log10 of the molar value.

Some solved entries appear below for comparison.
> print(dat)
                                   molecule  measurement
1  O=Nc1c(-c2c(O)[nH]c3ccccc23)[nH]c2ccccc12 [Indirubin-3-monoxime, Indirubin-3′-monoxime]         5.21
2  Cc1cncc2cccc(S(=O)(=O)N3CCCNC[C@@H]3C)c12 [H-1152]         6.11

I have this molecule here, COc1cc(C(=O)N2CCC(N3CCN(C)CC3)CC2)ccc1Nc1ncc2c(n1)N(C)c1ccccc1C(=O)N2C [LRRK2-IN-1] , and I need its recorded pIC50.
7.22
